molecular target: Alpha-1D adrenergic receptor (Homo sapiens, UniProt P25100); test: Binding affinity of compound towards human Alpha-1D adrenergic receptor expressed in rat-1 fibroblast membranes
Sequence (P25100 whole entry): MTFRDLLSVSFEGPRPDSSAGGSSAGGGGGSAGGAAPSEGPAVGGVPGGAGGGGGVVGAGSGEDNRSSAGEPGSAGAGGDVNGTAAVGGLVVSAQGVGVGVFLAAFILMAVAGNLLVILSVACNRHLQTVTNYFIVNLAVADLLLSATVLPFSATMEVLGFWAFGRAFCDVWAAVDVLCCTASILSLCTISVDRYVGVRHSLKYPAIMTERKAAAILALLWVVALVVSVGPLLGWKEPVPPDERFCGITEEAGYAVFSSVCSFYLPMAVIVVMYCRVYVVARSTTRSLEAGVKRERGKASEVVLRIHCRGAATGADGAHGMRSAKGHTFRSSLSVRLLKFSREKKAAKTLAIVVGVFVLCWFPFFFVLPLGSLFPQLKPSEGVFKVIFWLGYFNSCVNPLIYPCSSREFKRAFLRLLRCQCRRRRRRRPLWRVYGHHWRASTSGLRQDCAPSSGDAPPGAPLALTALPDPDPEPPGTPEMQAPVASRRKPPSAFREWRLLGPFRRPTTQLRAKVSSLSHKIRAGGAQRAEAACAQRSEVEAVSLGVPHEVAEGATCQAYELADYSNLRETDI
reportedMetric: IC50 (nM)

Here are 2 molecules together with their reported answers.
>  <smilesRepr>
c1ccc(-c2ccccc2OCC2=NCCN2)nc1

>  <measuredOn>
Alpha-1D adrenergic receptor (Homo sapiens, UniProt P25100)

>  <unitTag>
nM

>  <IC50>
1120

$$$$
>  <smilesRepr>
c1ccc(-c2ccccc2OCC2=NCCN2)cc1

>  <measuredOn>
Alpha-1D adrenergic receptor (Homo sapiens, UniProt P25100)

>  <unitTag>
nM

>  <IC50>
324

$$$$

I. Cc1ccnc(-c2ccccc2OCC2=NCCN2)c1
II. c1c[nH]c(-c2ccccc2OCC2=NCCN2)c1
III. c1cncc(-c2ccccc2OCC2=NCCN2)c1
IV. Cc1ccoc1-c1ccccc1OCC1=NCCN1
With regard to IC50, arrange the entries in ascending order, please. Please list the labels in the order you were asked to rank them.
II, III, IV, I
(II: 53.7 nM, III: 257 nM, IV: 417 nM, I: 1410 nM)

* * *

Target: Alpha-1B adrenergic receptor (Homo sapiens)
Sequence (P35368 whole entry): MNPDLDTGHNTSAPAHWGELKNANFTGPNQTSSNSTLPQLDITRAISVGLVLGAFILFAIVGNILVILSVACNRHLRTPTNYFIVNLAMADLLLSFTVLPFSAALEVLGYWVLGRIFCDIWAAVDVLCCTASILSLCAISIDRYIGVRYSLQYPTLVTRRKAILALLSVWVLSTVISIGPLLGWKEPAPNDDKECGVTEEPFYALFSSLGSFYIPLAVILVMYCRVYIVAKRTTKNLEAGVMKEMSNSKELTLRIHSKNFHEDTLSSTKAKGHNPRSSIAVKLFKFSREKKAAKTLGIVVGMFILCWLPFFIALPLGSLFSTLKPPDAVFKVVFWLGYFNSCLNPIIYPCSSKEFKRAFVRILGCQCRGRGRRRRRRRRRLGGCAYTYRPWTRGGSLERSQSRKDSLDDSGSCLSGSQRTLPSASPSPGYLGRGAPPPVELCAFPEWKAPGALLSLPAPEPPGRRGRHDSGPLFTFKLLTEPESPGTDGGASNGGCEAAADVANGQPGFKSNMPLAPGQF
Experiment: Activation of recombinant human adrenergic, alpha-1B receptor expressed in rat-1 fibroblasts determined via calcium mobilization through Gq coupled PLC pathway
reportedMetric: EC50

Below, 2 compounds whose answers are already recorded.
>  <compound>
CS(=O)(=O)Nc1ccc(F)c([C@@H](O)CN)c1 [NS-49]

>  <reportedMetric>
EC50

>  <observedMeasurement>
> 100 µM

$$$$
>  <compound>
c1c[nH]c(-c2ccccc2OCC2=NCCN2)c1

>  <reportedMetric>
EC50

>  <observedMeasurement>
0.001 µM

$$$$

Quick one: EC50 for `c1csc(-c2ccccc2OCC2=NCCN2)c1` ?
0.00398 µM

# iterate: `Cc1csc(-c2ccccc2OCC2=NCCN2)n1`
> 100 µM

// repeat for `c1ccc(-c2ccncn2)c(OCC2=NCCN2)c1` and report
> 100 µM

What about this compound? `c1ccc(-c2ccncc2)c(OCC2=NCCN2)c1`
> 100 µM

Another: `c1cnc(-c2ccccc2OCC2=NCCN2)nc1`
> 100 µM

* * *

molecular target: Alpha-1D adrenergic receptor (Homo sapiens); test: Activation of recombinant human adrenergic, alpha-1D receptor expressed in rat-1 fibroblasts assayed via calcium mobilization through Gq coupled PLC pathway
pEC50: −log10 of the molar value.
reportedMetric: pEC50

1. c1ccc(-c2ccns2)c(OCC2=NCCN2)c1
2. c1cncc(-c2ccccc2OCC2=NCCN2)c1
Between the entries labeled 1 and 2 , whose measured pEC50 is lower? Pick one and reply with its label.
2
(2: 6.80, 1: 7.60)
